Each item that follows carries a reported melting point.

These recorded examples may help you get a feel for the data.
O=C(O)CCN1CCN(S(=O)(=O)c2cc([N+](=O)[O-])ccc2Oc2cc(Cl)cc(Cl)c2)CC1 [Example 1-98] | 200 to 201 °C
Cc1cc(C)cc(Oc2ccc([N+](=O)[O-])cc2S(=O)(=O)N2CCN(C(C)C)CC2)c1 [Example 4-15] | 129 to 131 °C
CCN(CC)CCN1CCN(S(=O)(=O)c2cc([N+](=O)[O-])ccc2Oc2cc(Cl)cc(Cl)c2)CC1 [Example 4-30] | 98 to 99 °C

Consider the additional molecule presented here.
input: If you can, please state the reported melting point value of Cl.Cl.Cl.Nc1ccc(Oc2ccc([N+](=O)[O-])cc2S(=O)(=O)N2CCNCC2)cc1 [Example 1-13] .
output: 246 to 248 °C

---

# tested_target: Human CCR3 (Homo sapiens, UniProt P51677)
# Construct: The cloned CCR3 cDNA was constructed with pcDNA3 vector and transfected into a IC562 cell line; expressed in transfected cells
# Sequence (P51677 1-355): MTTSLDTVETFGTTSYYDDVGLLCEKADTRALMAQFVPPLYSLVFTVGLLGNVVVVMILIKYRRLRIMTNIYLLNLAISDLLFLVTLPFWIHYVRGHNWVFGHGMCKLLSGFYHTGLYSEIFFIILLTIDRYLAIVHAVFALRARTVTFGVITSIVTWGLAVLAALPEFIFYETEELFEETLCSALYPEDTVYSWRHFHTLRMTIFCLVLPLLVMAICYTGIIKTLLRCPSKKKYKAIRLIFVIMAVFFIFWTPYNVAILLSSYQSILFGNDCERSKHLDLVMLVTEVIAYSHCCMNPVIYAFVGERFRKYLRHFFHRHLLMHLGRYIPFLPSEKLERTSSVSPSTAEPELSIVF
# test_name: Calcium mobilization assay, eotaxin-stimulated
# Assay type: cell-based
# stated_conditions: human CCR3-transformed K562 cells, 10 nM eotaxin; compounds of about 40 to 90% purity; read-out: Activity grade Ca2+ (IC50 class)
pIC50: −log10 of the molar value.
Each item that follows carries a reported pIC50.

These recorded examples may help you get a feel for the data.
O=[N+]([O-])c1ccc(Sc2cc(Cl)cc(Cl)c2)c(S(=O)(=O)N2CCC(N3CCCC3)CC2)c1 | > 6.00
Cc1ccc([N+](=O)[O-])c(Oc2ccc([N+](=O)[O-])cc2S(=O)(=O)N2CCNCC2)c1.Cl | > 6.00
Cc1cc(C)cc(Oc2ccc(S(=O)(=O)N(C)C)cc2S(=O)(=O)N2CCNCC2)c1.Cl | > 6.00
Cc1cc(C)cc(Oc2cc(C)c(Cl)cc2S(=O)(=O)N2CCNCC2)c1.Cl | > 6.00
Cl.O=[N+]([O-])c1ccc(Oc2cccc3ccccc23)c(S(=O)(=O)N2CCNCC2)c1 | > 6.00
COc1cc(Oc2cc(Cl)cc(Cl)c2)c(S(=O)(=O)N2CCNCC2)cc1[N+](=O)[O-].Cl | > 6.00
O=[N+]([O-])c1ccc(Sc2ccccc2)c(S(=O)(=O)N2CCNCC2)c1 | 5.00 to 6.00
Cl.O=[N+]([O-])c1ccc(Sc2ccc3ccccc3c2)c(S(=O)(=O)N2CCNCC2)c1 | 5.00 to 6.00
CC(C)(C)c1ccc(Oc2ccc([N+](=O)[O-])cc2S(=O)(=O)N2CCNCC2)cc1 | < 5.00
O=C(O)c1ccc(Oc2cc(Cl)cc(Cl)c2)c(S(=O)(=O)N2CCNCC2)c1 | > 6.00

input: Please provide the recorded pIC50 for "Cc1cc(C)c(C)c(Oc2ccc([N+](=O)[O-])cc2S(=O)(=O)N2CCNCC2)c1.Cl" , tested on Human CCR3 (Homo sapiens, UniProt P51677).
output: > 6.00

---

Structures can show the parent of a compound that is named as a salt.
metric: melting point

These recorded examples may help you get a feel for the data.
Cc1cc(C)cc(Oc2ccc(Cl)cc2S(=O)(=O)N2CCNCC2)c1 (as salt: hydrochloride) [Example 5-2] | 202 to 204 °C
N#Cc1ccc(Oc2cc(Cl)cc(Cl)c2)c(S(=O)(=O)N2CCCC3CN(Cc4ccccc4)CC32)c1 (stereo not shown) [Example 13-2] | 90 to 93 °C
Cc1cc(C)cc(Oc2ccc(NC(=O)Cc3ccccc3)cc2S(=O)(=O)N2CCNCC2)c1 [Example 7-1] | 228 to 230 °C

input: If you can, please state the reported melting point value of CN(C)CC(C)(C)CN(C)S(=O)(=O)c1cc([N+](=O)[O-])ccc1Sc1cc(Cl)cc(Cl)c1 [Example 26-3] .
output: 144 to 145 °C

---

# tested_target: Human CCR3 (Homo sapiens)
# Construct: The cloned CCR3 cDNA was constructed with pcDNA3 vector and transfected into a IC562 cell line; expressed in transfected cells
# test_name: Calcium mobilization assay, eotaxin-stimulated
# Type: cell-based
# stated_conditions: human CCR3-transformed K562 cells, 10 nM eotaxin; compounds of about 40 to 90% purity; read-out: Activity grade Ca2+ (IC50 class)
Each item that follows carries a reported IC50.

Cc1cc(C)cc(Oc2ccc(NC(=O)c3ccccc3)cc2S(=O)(=O)N2CCNCC2)c1 | > 10 µM

input: If you can, please state the reported IC50 value of "O=[N+]([O-])c1ccc(Oc2ccccc2)c(S(=O)(=O)N2CCNCC2)c1" .
output: 1 to 10 µM

input: Moving on to "COc1cc(OC)cc(Oc2ccc([N+](=O)[O-])cc2S(=O)(=O)N2CCNCC2)c1.Cl"
output: > 10 µM

input: Moving on to "Cc1cc(C)cc(Oc2ccc([N+](=O)[O-])cc2S(=O)(=O)NCCN2CCCCC2)c1"
output: < 1 µM

input: Moving on to "CN(C)CC(C)(C)CN(C)S(=O)(=O)c1cc([N+](=O)[O-])ccc1Sc1cc(Cl)cc(Cl)c1"
output: < 1 µM

---

metric: melting point

These recorded examples may help you get a feel for the data.
CCN1CCC(N(CC)S(=O)(=O)c2cc([N+](=O)[O-])ccc2Oc2cc(C)cc(C)c2)C1 (centres unmarked) [Example 4-12] | 86 to 88 °C
CC(C)c1cccc(Oc2ccc([N+](=O)[O-])cc2S(=O)(=O)N2CCNCC2)c1.Cl [Example 1-9] | 168 to 170 °C
Cc1ccc(N2CCN(S(=O)(=O)c3cc([N+](=O)[O-])ccc3Oc3cc(C)cc(C)c3)CC2)cc1 [Example 4-8] | 168 to 170 °C
Cc1cc(C)cc(Oc2ccc([N+](=O)[O-])cc2S(=O)(=O)N2CCN(C=O)CC2)c1 [Example 4-10] | 210 to 212 °C

Consider the additional molecule presented here.
input: If you can, please state the reported melting point value of Cl.O=[N+]([O-])c1ccc(Oc2cc(Cl)cc(Cl)c2)c(S(=O)(=O)N2CCCNCC2)c1 [Example 1-91] .
output: 261 to 263 °C

---

Each item that follows carries a reported melting point.

O=[N+]([O-])c1ccc(Sc2cc(Cl)cc(Cl)c2)c(S(=O)(=O)N2CCC(N3CCCCC3)CC2)c1 [Example 2-3] | 191 to 192 °C
Cl.O=[N+]([O-])c1ccc(Oc2cccc(-c3ccccc3)c2)c(S(=O)(=O)N2CCNCC2)c1 [Example 1-68] | 99 °C

Consider the additional molecule presented here.
input: If you can, please state the reported melting point value of Cc1cc(C)cc(Oc2ccc(S(=O)(=O)N(C)C)cc2S(=O)(=O)N2CCNCC2)c1.Cl [Example 10-2] .
output: 242 to 247 °C

---

Each item that follows carries a reported pIC50.
# tested_target: Human CCR3 (Homo sapiens, UniProt P51677)
# Construct: The cloned CCR3 cDNA was constructed with pcDNA3 vector and transfected into a IC562 cell line; expressed in transfected cells
# test_name: Receptor binding assay (RBA), [125I]-eotaxin
# stated_conditions: human CCR3-transformed K562 cells, 0.1 nM [125I]-eotaxin; compounds of about 40 to 90% purity; read-out: Activity grade RBA (IC50 class)
pIC50: −log10 of the molar value. Counter-ions that a name gives are not always drawn.

These recorded examples may help you get a feel for the data.
Cc1cc(C)cc(Nc2ccc([N+](=O)[O-])cc2S(=O)(=O)N2CCNCC2)c1 [Example 3-1, dihydrochloride] | > 6.00
O=[N+]([O-])c1ccc(Sc2cc(Cl)cc(Cl)c2)c(S(=O)(=O)NCCN2CCCCC2)c1 | > 6.00

Consider the additional compound presented here.
input: If you can, please state the reported pIC50 value of "N#Cc1ccccc1Oc1ccc([N+](=O)[O-])cc1S(=O)(=O)N1CCNCC1" .
output: 5.00 to 6.00

---

Each item that follows carries a reported melting point.
Counter-ions that a name gives are not always drawn.

These recorded examples may help you get a feel for the data.
CCOC(=O)CCN1CCN(S(=O)(=O)c2cc([N+](=O)[O-])ccc2Oc2cc(Cl)cc(Cl)c2)CC1 | 160 to 162 °C
NCC1CCN(S(=O)(=O)c2cc([N+](=O)[O-])ccc2Sc2cc(Cl)cc(Cl)c2)CC1 | 147 to 149 °C
Cc1ccccc1Oc1ccc([N+](=O)[O-])cc1S(=O)(=O)N1CCNCC1.Cl | 167 to 169 °C
Cc1cc(C)cc(Nc2ccc([N+](=O)[O-])cc2S(=O)(=O)N2CCNCC2)c1 (as salt: hydrochloride) [Example 3-1, dihydrochloride] | 175 to 179 °C

input: If you can, please state the reported melting point value of "Cc1cc(C)cc(Oc2ccc([N+](=O)[O-])cc2S(=O)(=O)N2CCC(N(C)C)CC2)c1.Cl" .
output: 262 to 264 °C

input: Moving on to "N#Cc1ccc(Oc2cc(Cl)cc(Cl)c2)c(S(=O)(=O)N2CCC[C@H]2CN2CCCC2)c1"
output: 144 to 145 °C

input: Moving on to "Cl.O=[N+]([O-])c1ccc(Oc2cc(C(F)(F)F)cc(C(F)(F)F)c2)c(S(=O)(=O)N2CCNCC2)c1"
output: 188 to 191 °C

input: Moving on to Cc1cc(C)cc(Oc2ccc([N+](=O)[O-])cc2S(=O)(=O)N2CCNCC2)c1 (as salt: hydrochloride)
output: 264 to 266 °C

input: Moving on to "Cl.N[C@@H]1CCN(S(=O)(=O)c2cc([N+](=O)[O-])ccc2Oc2cc(Cl)cc(Cl)c2)C1"
output: 247 to 250 °C

input: Moving on to "Cc1cc(C)cc(Oc2ccc(C(F)(F)F)cc2S(=O)(=O)N2CCNCC2)c1.Cl"
output: 238 to 239 °C

input: Moving on to O=[N+]([O-])c1ccc(Oc2cc(Cl)cc(Cl)c2)c(S(=O)(=O)N2CCN(CC3CCCO3)CC2)c1 (stereo not drawn)
output: 182 to 183 °C

input: Moving on to Cc1cc(C)cc(Oc2ccc([N+](=O)[O-])cc2S(=O)(=O)N2CCN(CC3CCCO3)CC2)c1 (stereo not drawn)
output: 178 to 179 °C
